- Test system: IGROV1 ovarian
- experiment-notes: NCI tumour cell line growth inhibition, 48 h; in the data active means GI50 below about 0.43 µM; inactive means the rest
Please answer using one outcome listed in true (1) for active, false (0) for inactive

O=C(Nc1ccc(Cl)cc1)c1cc2c(cc1O)[nH]c1ccccc12 : false (0)
Cc1ccccc1S(=O)(=O)N1[C@H](c2ccc(Cl)cc2)C(C(=O)N[C@@H](Cc2ccccc2)C(N)=O)=C[C@@H]1C(C)(C)C : false (0)
NC(=O)C(Br)CBr (stereo not given) : false (0)

Now take the following compound into account.
// query What classification did CCCCCCCCCCCCCC[P+](CCCCCC)(CCCCCC)CCCCCC end up with in this test?
// result true (1)

Value source: PubChem BioAssay (NCI)
